A collection of variants and their measured protein stability index
B1: TRAF3IP2 (parent)
chain: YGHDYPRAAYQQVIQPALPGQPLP

- Variants of: B1
- Assay protocol: protein stability index of a GFP-peptide fusion (GPS, HEK-293T) (PSI 1-6); higher = more stable;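 further: lentivirally expressed fusions sorted by FACS into six bins by GFP to DsRed ratio, PSI derived from sequencing read proportions per bin multiplied by bin number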
- Settings: c terminus: a fixed tail appended
Provide a numeric answer; units are not to be included.

In the examples that follow, each entry is paired with its recorded protein stability index.
YGHDYPRAAYWQVIQPALPGQPLP [Q11W] : 1.94
YGHDYPRAAGQQVIQPALPGQPLP [Y10G] : 1.91
YGHDYPRAAYQQVIQGALPGQPLP [P16G] : 1.54
YGHDYPRAAYQQVIQQALPGQPLP [P16Q] : 2.03

Prompt line: GET /values?readout=protein stability index&item= YGHDYPRAADQQVIQPALPGQPLP [Y10D]
Response line: 1.97
